# targetEntity: Tyrosine-protein kinase JAK3 (Homo sapiens)
# Sequence (P52333 whole entry): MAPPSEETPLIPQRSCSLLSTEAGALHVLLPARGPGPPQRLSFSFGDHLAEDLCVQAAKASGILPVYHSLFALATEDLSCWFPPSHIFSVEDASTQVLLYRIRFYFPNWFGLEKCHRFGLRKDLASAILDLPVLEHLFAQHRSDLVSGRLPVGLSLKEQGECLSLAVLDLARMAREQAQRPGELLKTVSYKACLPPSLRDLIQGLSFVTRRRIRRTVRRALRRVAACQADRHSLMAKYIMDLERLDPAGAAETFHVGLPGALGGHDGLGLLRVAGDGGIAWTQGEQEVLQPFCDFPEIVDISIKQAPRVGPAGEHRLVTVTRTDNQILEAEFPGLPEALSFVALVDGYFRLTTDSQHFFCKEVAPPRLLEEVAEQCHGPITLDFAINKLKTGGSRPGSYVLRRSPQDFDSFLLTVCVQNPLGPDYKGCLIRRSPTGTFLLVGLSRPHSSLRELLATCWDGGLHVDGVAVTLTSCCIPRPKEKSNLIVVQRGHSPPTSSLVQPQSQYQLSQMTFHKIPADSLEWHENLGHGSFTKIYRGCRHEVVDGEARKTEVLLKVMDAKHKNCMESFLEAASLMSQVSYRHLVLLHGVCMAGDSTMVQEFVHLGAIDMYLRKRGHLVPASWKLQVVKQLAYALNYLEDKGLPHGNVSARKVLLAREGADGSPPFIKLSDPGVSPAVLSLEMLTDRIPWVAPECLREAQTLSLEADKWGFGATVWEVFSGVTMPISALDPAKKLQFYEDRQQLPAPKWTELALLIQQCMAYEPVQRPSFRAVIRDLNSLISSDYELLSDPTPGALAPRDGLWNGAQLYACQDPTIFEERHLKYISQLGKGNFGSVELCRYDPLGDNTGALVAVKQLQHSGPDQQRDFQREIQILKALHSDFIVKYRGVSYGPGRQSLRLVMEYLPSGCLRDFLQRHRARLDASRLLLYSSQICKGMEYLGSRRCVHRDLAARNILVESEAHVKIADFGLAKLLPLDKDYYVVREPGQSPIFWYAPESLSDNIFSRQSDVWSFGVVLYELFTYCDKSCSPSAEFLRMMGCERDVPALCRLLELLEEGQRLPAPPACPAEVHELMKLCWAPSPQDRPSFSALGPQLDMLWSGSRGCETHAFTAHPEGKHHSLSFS
# method: Inhibition of recombinant JAK3 using Poly (Glu,Ala,Tyr) as substrate after 2 hrs by luminescence assay
reportedMetric: pIC50
// scale note: pIC50 = -log10(conc_M); give the bare number

Illustrative cases are given below, each with its answer.
>>> df
                                   compound                              targetentity  reportedmetric  reported
0  COc1ccc2cc1-c1ccnc(n1)Nc1ccc(OCCN3CCCC3)c(c1)COCC=CCOC2  Tyrosine-protein kinase JAK3 (Homo sapiens)           pIC50      5.14
1  Cc1cnc2nc1-c1cccc(c1)COCC=CCOCc1cc(ccc1OCCN1CCCC1)N2  Tyrosine-protein kinase JAK3 (Homo sapiens)           pIC50      7.05
2  CCN(CC)CCC(=O)Nc1cc2cc(c1)Nc1nccc(n1)-c1cccc(c1)COCC=CCOC2 (mixture of isomers)  Tyrosine-protein kinase JAK3 (Homo sapiens)           pIC50      6.41

*Q* Requested field: pIC50. Item: C1=CCOCc2cc(ccc2N2CCNCC2)Nc2nccc(n2)-c2cccc(c2)COC1 (mixture of isomers)
*A* 5.80

*Q* Now this one: O=C1CCCN1CCOc1ccc2cc1COCC=CCOCc1cccc(c1)-c1ccnc(n1)N2 (mixture of isomers)
*A* 6.30

*Q* Lookup C1=CCOCc2cccc(c2)-c2ccnc(n2)Nc2cc(cc(OCCN3CCOCC3)c2)COC1 (mixture of isomers)
*A* 5.48
